Could you please report measured switch fluorescence ratio for the items listed next?
Test system: ATP;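 note: ATP exposure 15 min at 22 °C before imaging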
METHOD NOTES: switch fluorescence ratio, 500 uM ATP over buffer (Cy3 cluster intensity, sum of 5 cycles each) (fold (ratio)); higher = stronger signal-on switching upon ATP binding; sequences stand for … in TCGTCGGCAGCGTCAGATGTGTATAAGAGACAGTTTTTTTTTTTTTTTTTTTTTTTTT…TC
RUN PARAMETERS: aptamer strand: ATP DNA aptamer (quencher-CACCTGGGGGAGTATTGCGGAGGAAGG + anchor), 100 nM annealed; ATP concentration: 500 uM
Give bare numbers.

Examples with their reported switch fluorescence ratio follow.
* CGATCTTACG | 0.993
* TTTTCGTCTC | 1.02
* GCGATGTAGA | 1.05
* AGAATTGGGT | 0.996
* TCTTCCGGTT | 1.23
* CGTTAAGTTT | 0.98
* TAAGGTCATA | 1.03
* GGGGAGTATT | 0.971
* GATCTAGTTA | 0.996
* GCATGGGGTT | 0.998

Dear colleague, could you please provide switch fluorescence ratio for the sequences listed below?
1. AATCATTTTT
2. AAAATTTTGC
3. GATATAATGG

**A:**
0.986
1.12
1

Entry TCATATTATT : switch fluorescence ratio on ATP = 1

* * *

Test system: ATP;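 note: ATP exposure 15 min at 22 °C before imaging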
METHOD NOTES: switch fluorescence ratio, 500 uM ATP over buffer (Cy3 cluster intensity, sum of 5 cycles each) (fold (ratio)); higher = stronger signal-on switching upon ATP binding; sequences stand for … in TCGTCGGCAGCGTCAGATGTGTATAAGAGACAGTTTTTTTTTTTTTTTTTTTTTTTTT…TC
RUN PARAMETERS: aptamer strand: ATP DNA aptamer (quencher-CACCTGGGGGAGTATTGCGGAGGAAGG + anchor), 100 nM annealed; ATP concentration: 500 uM
# if value of switch fluorescence ratio reaches 1, tag Condition met; if it stays below, tag Condition not met

Worked cases, answers included:
• GGGGGGAGTC = Condition met
• ATTGGCCCAT = Condition not met

**Q:** Entry GAAACTTGAC : is its switch fluorescence ratio no less than 1?
**A:** Condition met

**Q:** Entry GCCAGCAGCT : is its switch fluorescence ratio no less than 1?
**A:** Condition not met

* * *

Tested on: ATP;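 note: ATP exposure 15 min at 22 °C before imaging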
METHOD NOTES: switch fluorescence ratio, 500 uM ATP over buffer (Cy3 cluster intensity, sum of 5 cycles each) (fold (ratio)); higher = stronger signal-on switching upon ATP binding; sequences stand for … in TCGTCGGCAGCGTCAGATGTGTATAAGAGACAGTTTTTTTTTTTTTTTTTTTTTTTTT…TC
RUN PARAMETERS: aptamer strand: ATP DNA aptamer (quencher-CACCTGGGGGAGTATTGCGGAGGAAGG + anchor), 100 nM annealed; ATP concentration: 500 uM
MEASURED QUANTITY: switch fluorescence ratio
Numbers only.

* CAGTCATGGG | 1

Dear colleague, could you please provide switch fluorescence ratio for the sequences listed below?
1. GGGTCAGTCC
2. TGGGGTACTA
3. GGGGGGTAAG
4. TCAGCGTGTC
5. ATAAAACGC
6. CGGGATTATG
7. CCTACGTGGT
8. TTTGGGAAAG

**A:**
[0.978, 0.975, 1, 0.965, 1.04, 1.01, 4.49, 0.978]

Dear colleague, could you please provide switch fluorescence ratio for the sequences listed below?
1. TTGAGATTGC
2. GATTATCTCG
3. AGATTTGTCG
4. GTGGACAGGC
5. ATACAAGGGG
6. ATTTGCGGGC
7. GCAAGTTGGG
8. CGTTGTTTCT

**A:**
1: 0.98; 2: 0.99; 3: 0.993; 4: 1; 5: 1.03; 6: 1.07; 7: 1.01; 8: 0.967

Dear colleague, could you please provide switch fluorescence ratio for the sequences listed below?
1. GCCGTACTCT
2. TATAGCTAAT

**A:**
[1.1, 1.03]
